Data origin: patent US20040258656

experimental system: T1, TGFβ2 (transforming growth factor beta 2) (Homo sapiens, UniProt P61812 SEQ:1-112)
T1 sequence: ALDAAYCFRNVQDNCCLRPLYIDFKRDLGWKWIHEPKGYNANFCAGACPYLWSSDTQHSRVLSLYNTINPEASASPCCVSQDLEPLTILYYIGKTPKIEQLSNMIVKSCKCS
assay summary: filter
conditions: chain copies: 2 (inferred, homodimer)
test readout: binding signal

Consider the reported binding signal for these binders:
- binder: "GGAGAUAUUACAGAGUCUGUAUAGCUGUACUCC (ssRNA, 2'-F C and U; 2'-OMe at lowercase a,g of ggaga-UAUUaCagagUCUgUAUAgCUgUaCucc with G of CUGUAUA 2'-OH; 3'-3' dT) [NX22426]"
  binding signal: "1 x Kd of NX22284"
- binder: "GGAGGUUAUUACAGAGUCUGUAUAGCUGUACUCC (ssRNA, 2'-F C and U; 2'-OMe at all purines except G5, A8, A11, G20, A22, A24; 3'-3' dT) [NX22421]"
  binding signal: "2 x Kd of NX22284"
- binder: "GGAGGUUAUUACAGAGUCUGUAUAGCUGUACUCC (ssRNA, 2'-F C and U; 2'-OMe at lowercase a,g of ggaggUUaUUaCAGAGUCUGUAUAgCUgUaCucc; 3'-3' dT) [NX22377]"
  binding signal: "1 x Kd of NX22284"
- binder: "GGAGGUUAUUACAGAGUCUGUAUAGCUGUACUCC (ssRNA, 2'-F C and U; 2'-OMe at lowercase a,g of GGAGGUUAUUACAGAGUCUGUAUAgCUgUaCUCC; 3'-3' dT) [NX22360]"
  binding signal: "1 x Kd of NX22284"
- binder: "GGGGUUAUUACAGAGUCUGUAUAGCUGUACCC (ssRNA, 2'-F C and U; 2'-OMe at lowercase a,g of gg-ggUUAUUaCagagUCUGUAUAgCUgUaC-CC; 3'-3' dT) [NX22427]"
  binding signal: "0.3 x Kd of NX22284"

Please find the next binder below.
Query (binder): GGAGGUUAUUACAGAGUCUGUAUAGCUGUACUCC (ssRNA, 2'-F C and U; 2'-OMe at all purines except G20, A22, A24; 3'-3' dT) [NX22417] ; field requested: binding signal
1 x Kd of NX22284
